- MEASUREMENT PROTOCOL: In vivo pharmacokinetic experiment in CD-1 female mice, intravenous
- EXPERIMENTAL CONTEXT: mouse, 2 mg/kg, CD-1 mice, 2 mpk, plasma
Collected clearance values appear next to each entry.

| COMPOUND STRUCTURE | UNITS SYMBOL | clearance |
| --- | --- | --- |
| NS(=O)(=O)OC[C@H]1[C@H](F)[C@@H](Nc2ncncc2C(=O)c2cc3c(s2)C=C[C@]32NCCc3ccc(Cl)cc32)C[C@@H]1O | mL/min/kg | 94.9 |
| NS(=O)(=O)OC[C@H]1[C@H](F)[C@@H](Nc2ncncc2C(=O)c2cc3c(s2)CCC[C@]32NCCc3ccc(Cl)cc32)C[C@@H]1O | mL/min/kg | 53.1 |
| NS(=O)(=O)OC[C@H]1[C@H](F)[C@@H](Nc2ncncc2C(=O)c2cc3c(s2)CC[C@]32NCCc3ccc(Cl)cc32)C[C@@H]1O | mL/min/kg | 27.5 |
| NS(=O)(=O)OC[C@H]1[C@H](F)[C@@H](Nc2ncncc2C(=O)c2cc3c(s2)CCC[C@]32NCCc3ccc(F)cc32)C[C@@H]1O | mL/min/kg | 71.1 |

----------
- TARGET OF ASSAY: SAE (Homo sapiens)
- Construct: endogenous in cells; host or cells: HCT116
- Sequence (Q9UBT2 whole entry): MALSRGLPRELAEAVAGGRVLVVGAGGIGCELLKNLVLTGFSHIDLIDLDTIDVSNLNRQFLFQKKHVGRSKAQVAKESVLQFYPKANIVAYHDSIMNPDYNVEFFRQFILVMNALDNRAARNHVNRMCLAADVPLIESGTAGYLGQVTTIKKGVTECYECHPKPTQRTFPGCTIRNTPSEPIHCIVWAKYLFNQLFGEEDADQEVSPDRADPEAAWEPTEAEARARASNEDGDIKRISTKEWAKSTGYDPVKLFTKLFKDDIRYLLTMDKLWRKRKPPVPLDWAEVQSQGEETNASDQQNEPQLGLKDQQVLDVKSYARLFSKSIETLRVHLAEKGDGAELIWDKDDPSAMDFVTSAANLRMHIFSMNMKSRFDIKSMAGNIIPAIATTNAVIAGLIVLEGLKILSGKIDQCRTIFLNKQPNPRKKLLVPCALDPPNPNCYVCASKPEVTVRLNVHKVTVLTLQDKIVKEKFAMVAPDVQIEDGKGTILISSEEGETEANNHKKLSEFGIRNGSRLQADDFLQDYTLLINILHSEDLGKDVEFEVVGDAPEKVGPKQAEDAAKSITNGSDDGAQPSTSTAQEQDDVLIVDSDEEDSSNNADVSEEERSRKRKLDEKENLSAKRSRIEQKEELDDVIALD
- Sequence (Q9UBE0 whole entry, further chain): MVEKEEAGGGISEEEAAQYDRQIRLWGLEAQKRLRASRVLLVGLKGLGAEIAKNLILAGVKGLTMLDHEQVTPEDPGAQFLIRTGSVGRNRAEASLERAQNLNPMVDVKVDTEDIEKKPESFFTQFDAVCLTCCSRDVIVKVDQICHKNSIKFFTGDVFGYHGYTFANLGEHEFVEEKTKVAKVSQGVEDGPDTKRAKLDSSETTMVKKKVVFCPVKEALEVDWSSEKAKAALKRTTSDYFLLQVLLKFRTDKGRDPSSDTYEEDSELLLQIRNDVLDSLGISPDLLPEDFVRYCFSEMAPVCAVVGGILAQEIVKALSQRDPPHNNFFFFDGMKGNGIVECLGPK
- MEASUREMENT PROTOCOL: SUMO IF: in vitro inhibitory activity assay against SAE in HCT116 cells (SUMO-2/3 immunofluorescence)
- Type: cell-based
- EXPERIMENTAL CONTEXT: class symbols, 6 h at 37° C.
Collected IC50 values appear next to each entry.

| MOLECULE | IC50 |
| --- | --- |
| NS(=O)(=O)OC[C@H]1[C@H](F)[C@@H](Nc2ncncc2C(=O)c2cc3c(s2)COC[C@@]32NCCc3ccc(Cl)c(Cl)c32)C[C@@H]1O | > 0.2 µM |
| NS(=O)(=O)OC[C@H]1[C@H](F)[C@@H](Nc2ncncc2C(=O)c2cc3c(s2)OC[C@@]32NCCc3ccc(F)cc32)C[C@@H]1O | > 0.2 µM |
| NS(=O)(=O)OC[C@H]1[C@H](F)[C@@H](Nc2ncncc2C(=O)c2cc3c(s2)OCCC32NCCc3ccc(Cl)cc32)C[C@@H]1O (stereo partly drawn) | 0.05 to 0.2 µM |
| NS(=O)(=O)OC[C@H]1[C@H](F)[C@@H](Nc2ncncc2C(=O)c2cc3c(s2)CCC[C@]32NCCc3ccncc32)C[C@@H]1O | 0.05 to 0.2 µM |
| NS(=O)(=O)OC[C@H]1[C@H](F)[C@@H](Nc2ncncc2C(=O)c2cc(C3NCCc4ccc(Cl)cc43)c(C(F)(F)F)s2)C[C@@H]1O (stereo partly drawn) | 0.05 to 0.2 µM |
| NS(=O)(=O)OC[C@H]1[C@H](F)[C@@H](Nc2ncncc2C(=O)c2cc3c(s2)CCCC32NCCc3cc(F)c(F)cc32)C[C@@H]1O (stereo partly drawn) | 0.05 to 0.2 µM |
| NS(=O)(=O)OC[C@H]1[C@H](F)[C@@H](Nc2ncncc2C(=O)c2cc3c(s2)CC[C@]32NCCc3cc(F)c(Cl)c(F)c32)C[C@@H]1O | ≤ 0.05 µM |
| NS(=O)(=O)OC[C@H]1[C@H](F)[C@@H](Nc2ncncc2C(=O)c2cc3c(s2)CCC[C@@]32NCCc3cnc(Cl)cc32)C[C@@H]1O | > 0.2 µM |
| NS(=O)(=O)OC[C@H]1[C@H](F)[C@@H](Nc2ncncc2C(=O)c2cc3c(s2)CCC32NCCc3cc(Cl)c(Cl)cc32)C[C@@H]1O (stereo partly drawn) | 0.05 to 0.2 µM |
| Cc1sc(C(=O)c2cncnc2N[C@H]2C[C@H](O)[C@@H](COS(N)(=O)=O)[C@@H]2F)cc1C1NCCc2cc(F)c(Cl)cc21 (stereo partly drawn) | 0.05 to 0.2 µM |
| C=CCN1Cc2sc(C(=O)c3cncnc3N[C@H]3C[C@H](O)[C@@H](COS(N)(=O)=O)[C@@H]3F)cc2C2(C1)NCCc1ccc(Cl)cc12 (stereo partly drawn) | ≤ 0.05 µM |
| NS(=O)(=O)OC[C@H]1[C@H](F)[C@@H](Nc2ncncc2C(=O)c2cc3c(s2)CO[C@]32NCCc3ccc(Cl)cc32)C[C@@H]1O | 0.05 to 0.2 µM |

Data credit: patent US20260297109A1
